Test system: Bacillus subtilis
Assay: Antibacterial activity against Bacillus subtilis at 5 ug/disk after 24 hrs by agar-plate diffusion assay
Assay type: functional
Settings: read-out: IZ
// label = Fulfilled if zone of inhibition at 5 µg/disc is not less than 10 mm, otherwise Not fulfilled

Does the reported zone of inhibition at 5 µg/disc for `COc1c(Br)cc(Br)cc1Oc1c(Br)ccc(Br)c1OC` fall at or above the 10 mm mark?
Not fulfilled

And `COc1c(Br)c(Br)c(Br)c(Br)c1Oc1cc(Br)cc(Br)c1O` ?
Not fulfilled

Same thing, different molecule: `COc1ccc(Br)cc1Oc1c(OC)ccc(Br)c1Br`
Not fulfilled

Could you do the same for `Oc1ccc(Br)cc1Oc1c(O)c(Br)cc(Br)c1Br` , please?
Fulfilled

Note, next up: `Oc1cc(Br)ccc1Oc1cc(Br)cc(Br)c1O`
Not fulfilled

What would you report for `Oc1c(Br)cc(Br)cc1Oc1c(Br)cc(Br)c(Br)c1O` ?
Not fulfilled

Would you mind doing `Oc1c(Br)cc(Br)cc1Oc1c(O)c(Br)c(Br)c(Br)c1Br` as well?
Fulfilled

Same question, `COc1c(Br)c(Br)cc(Br)c1Oc1cc(Br)cc(Br)c1O` this time
Not fulfilled

Here is the next molecule: `COc1cc(Br)c(Br)c(Br)c1Oc1cc(Br)cc(Br)c1OC`
Not fulfilled

Now this one: `COc1c(Br)cc(Br)cc1Oc1c(Br)cc(Br)c(Br)c1OC`
Not fulfilled

Same question, `COc1cc(Br)cc(Br)c1Oc1cc(Br)cc(Br)c1OC` this time
Not fulfilled

Let us now turn to `COc1c(Br)cc(Br)cc1Oc1c(Br)cc(Br)c(Br)c1O`
Fulfilled

# repeat for `Oc1ccc(Br)cc1Oc1c(O)ccc(Br)c1Br`
Fulfilled

# iterate: `COc1c(Br)cc(Br)cc1Oc1ccc(Br)cc1Br`
Not fulfilled

Same thing, different molecule: `COc1c(Br)cc(Br)cc1Oc1c(Br)c(Br)c(Br)c(Br)c1OC`
Not fulfilled

Entry `Oc1c(Br)cc(Br)cc1Oc1c(Br)ccc(Br)c1O` please
Fulfilled

Repeat for the following molecule: `Oc1cc(Br)cc(Br)c1Oc1cc(Br)cc(Br)c1O`
Fulfilled
